Experimental system: T1, human transferrin receptor (recombinant, for surface plasmon resonance) (human, UniProt P02786 89-760)
T1 construct: also called huTfR; human transferrin receptor-biotinylated
T1 sequence (P02786 89-760 limits assumed): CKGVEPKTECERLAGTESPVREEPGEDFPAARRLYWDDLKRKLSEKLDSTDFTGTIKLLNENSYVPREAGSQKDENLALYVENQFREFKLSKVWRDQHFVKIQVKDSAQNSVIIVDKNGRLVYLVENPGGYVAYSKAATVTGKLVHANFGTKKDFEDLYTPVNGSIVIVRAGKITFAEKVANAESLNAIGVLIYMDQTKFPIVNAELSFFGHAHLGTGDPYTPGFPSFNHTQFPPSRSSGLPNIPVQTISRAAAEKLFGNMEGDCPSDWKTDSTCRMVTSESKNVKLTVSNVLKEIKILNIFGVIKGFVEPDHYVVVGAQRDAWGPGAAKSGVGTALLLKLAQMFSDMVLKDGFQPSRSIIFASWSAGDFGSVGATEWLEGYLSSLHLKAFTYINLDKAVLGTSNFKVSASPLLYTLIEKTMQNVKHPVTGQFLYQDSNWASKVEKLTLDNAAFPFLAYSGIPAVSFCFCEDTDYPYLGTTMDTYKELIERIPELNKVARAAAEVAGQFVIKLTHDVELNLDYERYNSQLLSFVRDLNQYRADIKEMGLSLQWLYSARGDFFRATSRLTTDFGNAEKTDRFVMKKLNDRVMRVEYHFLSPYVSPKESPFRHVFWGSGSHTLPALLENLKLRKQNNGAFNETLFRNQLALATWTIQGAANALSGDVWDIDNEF
Run description: SPR 25C
Just a reminder that ties go to Not satisfied: only koff strictly below 0.005 s⁻¹ counts as Satisfied.

* 2/99 VH11/VL10 (antibody, V domains shown) VH: QQLLESGGGLVQPGGSLRLSCAASGFSLSSYAMSWVRQAPGKGLEWVGYIWSGGSTDYADSVKGRFTISRDNSKNTLYLQMNSLRAEDTAVYYCARRYGTSYPDYGDANGFDPWGQGTLVTVSS VL: DIQMTQSPSSLSASVGDRVTITCRASQSISSYLSWYQQKPGKAPKLLIYRASTLASGVPSRFSGSRSGTDFTLTISSLQPEDFATYYCQQSYSSSNVDNTFGGGTKVEIK | Not satisfied
* 2/99 VH9/VL14 (antibody, V domains shown) VH: QQLLESGGGLVQPGGSLRLSCAASGFTFSSYAMSWVRQAPGKGLEWVGYIWSGGSTDYADSVKGRFTISRDNSKNTLYLQMNSLRAEDTAVYYCAKRYGTSYPDYGDANGFDPWGQGTLVTVSS VL: DIVMTQSPDSLAVSLGERATINCKSSQSISSYLSWYQQKPGQRPKLLIYRASTLASGVPDRFSGSGSGTDFTLTISSLQAEDVAVYYCQQSYSSSNVDNTFGGGTKVEIK | Satisfied
* 2/99 VH23-DANG/VL7 (antibody, V domains shown) VH: QSMQESGPGLVKPSQTLSLTCTVSGFSLSSYAMSWIRQHPGKGLEWIGYIWSGGSTDYASWAKSRVTISKTSTTVSLKLSSVTAADTAVYYCARRYGTSYPDYGDANGFDPWGQGTLVTVSS VL: AIQLTQSPSSLSASVGDRVTITCRASQSISSYLAWYQQKPGKAPKLLIYRASTLASGVPSRFSGSGSGTDFTLTISSLQPEDFATYYCQQSYSSSNVDNTFGGGTKVEIK | Satisfied
* 2/99 VH6/VL12 (antibody, V domains shown) VH: QQLVETGGGLIQPGGSLRLSCAASGFSLSSYAMSWVRQAPGKGLEWIGYIWSGGSTDYADSVKGRFTISRDNSKNTLYLQMNSLRAEDTAVYYCARRYGTSYPDYGDANGFDPWGQGTLVTVSS VL: DIQMTQSPSSLSASVGDRVTITCRASQSISSYLAWYQQKPGKAPKLLIYRASTLASGVPSRFSGSRSGTDFTLTISSLQPEDFATYYCQQHYSSSNVDNTFGGGTKVEIK | Not satisfied
* 2/99 VH1/VL1 (antibody, V domains shown) VH: VQLVETGGGLIQPGGSLRLSCAASGFSLSSYAMSWVRQAPGKGLEWVGYIWSGGSTDYADSVKGRFTISRDNSKNTLYLQMNSLRAEDTAVYYCARRYGTSYPDYGDANGFDPWGQGTLVTVSS VL: DIQMTQSPSSLSASVGDRVTITCRASQSISSYLNWYQQKPGKAPKLLIYRASSLQSGVPSRFSGSGSGTDFTLTISSLQPEDFATYYCQQSYSSSNVDNTFGGGTKVEIK | Satisfied
* 2/99 VH16/VL6 (antibody, V domains shown) VH: QQLQESGPGLVKPSETLSLTCTVSGFSLSSYAMSWVRQPPGKGLEWIGYIWSGGSTDYNPSLKSRVTISVDTSKNQVSLKLSSVTAADTAVYYCARRYGTSYPDYGDANGFDPWGPGTLVTVSS VL: AIQLTQSPSSLSASVGDRVTITCRASQSISSYLSWYQQKPGKAPKLLIYRASTLASGVPSRFSGSGSGTDFTLTISSLQPEDFATYYCQQSYSSSNVDNTFGGGTKVEIK | Satisfied
* 2/99 VH5/VL17 (antibody, V domains shown) VH: QSMEETGGGLIQPGGSLRLSCAASGFSLSSYAMSWVRQAPGKGLEWVGYIWSGGSTDYADSVKGRFTISRDNSKNTLYLQMNSLRAEDTAVYYCARRYGTSYPDYGDANGFDPWGPGTLVTVSS VL: AIQLTQSPSSLSASVGDRVTITCRASQSISSYLAWYQQKPGKAPKLLIYRASTLASGVPSRFSGSGSGTDFTLTISSLQPEDFATYYCQQTYSSSNVDNTFGGGTKVEIK | Not satisfied
* 2/99 VH5/VL6 (antibody, V domains shown) VH: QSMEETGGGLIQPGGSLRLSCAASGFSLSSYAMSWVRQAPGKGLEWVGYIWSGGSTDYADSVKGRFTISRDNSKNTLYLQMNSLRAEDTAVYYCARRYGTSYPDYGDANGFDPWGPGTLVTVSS VL: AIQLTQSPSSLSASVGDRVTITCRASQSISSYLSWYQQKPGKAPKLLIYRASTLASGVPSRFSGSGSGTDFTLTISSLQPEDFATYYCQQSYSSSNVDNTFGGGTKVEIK | Satisfied
* 2/99 VH15/VL5 (antibody, V domains shown) VH: QQLQESGPGLVKPSETLSLTCTVSGFSLSSYAMSWVRQPPGKGLEWIGYIWSGGSTDYNPSLKSRVTISVDTSKNQVSLKLSSVTAADTAVYYCARRYGTSYPDYGDANGFDPWGQGTLVTVSS VL: DIQMTQSPSSLSASVGDRVTITCRASQSISSYLSWYQQKPGKAPKLLIYRASTLASGVPSRFSGSGSGTDFTLTISSLQPEDFATYYCQQSYSSSNVDNTFGGGTKVEIK | Satisfied
* 2/99 VH5/VL14 (antibody, V domains shown) VH: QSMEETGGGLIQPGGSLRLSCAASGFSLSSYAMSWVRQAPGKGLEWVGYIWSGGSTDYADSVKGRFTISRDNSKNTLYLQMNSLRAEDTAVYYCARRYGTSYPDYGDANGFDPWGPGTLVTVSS VL: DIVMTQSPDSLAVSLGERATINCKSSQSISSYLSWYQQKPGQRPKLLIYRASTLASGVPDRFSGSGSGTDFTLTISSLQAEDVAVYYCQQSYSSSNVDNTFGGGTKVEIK | Satisfied
